Entry source: the supplement of paper PMC10515830

Tested on: Danio rerio larvae (5 dpf)
Test: difference in startle response vs DMSO (percentage points); higher = stronger startle than DMSO
Settings: 10 µM; exposure time 6 h
Counter-ions that a name gives are not always drawn.
Please use label 1 whenever difference in startle response is not below 5, and label 0 whenever it is.

Please tell me: is the compound CCN(CC)CCOc1ccc(C(=C(Cl)c2ccccc2)c2ccccc2)cc1 [Clomiphene (citrate)] at or over 5 in terms of difference in startle response? label 1

Does CN1CCC(=C2c3ccccc3CCn3c(C=O)cnc32)CC1 have a reported difference in startle response of at least 5? label 0

hey, is difference in startle response for this one >= 5? C[C@@H](NCCCc1cccc(C(F)(F)F)c1)c1cccc2ccccc12 [Cinacalcet (hydrochloride)] label 0

Record Nc1nc(Cl)nc2c1ncn2[C@H]1C[C@H](O)[C@@H](CO)O1 ; criterion: difference in startle response no lower than 5. Met? label 0

Threshold query (difference in startle response >= 5) on N=C(N)c1ccc(OCCCCCOc2ccc(C(=N)N)cc2)cc1 label 1

###

Tested on: Danio rerio larvae (5 dpf)
Assay: difference in startle response vs DMSO (percentage points); higher = stronger startle than DMSO
Details: 10 µM; exposure time 6 h
Structures can show the parent of a compound that is named as a salt.
Consider the following partition of reported difference in startle response into named classes: class 1 (below -6), class 2 (-6 to below 1), class 3 (1 or more)

Just checking, what class would you give CC[C@@H]1/C=C(\C)C[C@H](C)C[C@H](OC)[C@H]2O[C@@](O)(C(=O)C(=O)N3CCCC[C@H]3C(=O)O[C@H](/C(C)=C/[C@@H]3CC[C@H](Cl)[C@H](OC)C3)[C@H](C)[C@@H](O)CC1=O)[C@H](C)C[C@@H]2OC [Pimecrolimus] here? class 1

Quick check: band for CC(=O)Oc1ccccc1C(=O)O [Aspirin] class 3

# bin lookup: classify Cc1ccc(-c2cc(C(F)(F)F)nn2-c2ccc(S(N)(=O)=O)cc2)cc1 [Celecoxib] by its difference in startle response class 1

In plain terms, what class is CCOc1nc2cccc(C(=O)OC(C)OC(=O)OC3CCCCC3)c2n1Cc1ccc(-c2ccccc2-c2nn[nH]n2)cc1 (configuration not stated) [Candesartan Cilexetil] ? class 1

Form: Item = Clc1ccc2c(c1)CCc1cccnc1C2=C1CCNCC1 [Desloratadine] ; Class = ? class 3

For the record CN(C)CCOc1ccc(/C(=C(/CCCl)c2ccccc2)c2ccccc2)cc1 [Toremifene (citrate)] , report the class its difference in startle response corresponds to. class 1

Category of CC(=O)O[C@]1(C(C)=O)CC[C@H]2[C@@H]3CCC4=CC(=O)CCC4=C3[C@@H](c3ccc(N(C)C)cc3)C[C@@]21C [Ulipristal Acetate] , please. class 1

Lab note: which band did CN(C)CCOC(=O)C(c1ccccc1)C1(O)CCCC1 (configuration not stated) [Cyclopentolate (hydrochloride)] land in? class 2

Which difference in startle response category applies to C[C@@H](Oc1cc(-c2cnn(C3CCNCC3)c2)cnc1N)c1c(Cl)ccc(F)c1Cl [(R)-Crizotinib] here? class 2

Please report the category associated with CC(=O)[C@@]1(O)CC[C@H]2[C@@H]3C[C@H](C)C4=CC(=O)C=C[C@]4(C)[C@@]3(F)[C@@H](O)C[C@@]21C [Fluorometholone] , nothing else. class 3

Which bin, given its difference in startle response, does NC[C@H]1O[C@H](O[C@H]2[C@H](O)[C@@H](O[C@H]3O[C@H](CO)[C@@H](O)[C@H](N)[C@H]3O)[C@H](N)C[C@@H]2N)[C@H](N)C[C@@H]1O [Tobramycin] occupy? class 2

Just checking, what class would you give CCCc1cc(=O)[nH]c(=S)[nH]1 [Propylthiouracil] here? class 3

# classify by difference in startle response band: O=c1[nH]c(=O)n([C@H]2C[C@H](O)[C@@H](CO)O2)cc1F [Floxuridine] class 2

Hi, small favor: classify CNCCC=C1c2ccccc2CCc2ccccc21 [Nortriptyline (hydrochloride)] by its difference in startle response when you get a moment. class 3

Could you tell me which band COC(=O)N(C)c1c(N)nc(-c2nn(Cc3ccccc3F)c3ncccc23)nc1N [Riociguat] belongs to? class 2

Kindly identify the class of CCCCc1oc2ccc(NS(C)(=O)=O)cc2c1C(=O)c1ccc(OCCCN(CCCC)CCCC)cc1 [Dronedarone (hydrochloride)] . class 1

Place this compound in its band: Cc1nc2n(c(=O)c1CCN1CCC(c3noc4cc(F)ccc34)CC1)CCCC2 [Risperidone] class 3

###

Test system: Danio rerio larvae (5 dpf)
Assay: difference in startle response vs DMSO (percentage points); higher = stronger startle than DMSO
Details: 10 µM; exposure time 6 h
Counter-ions that a name gives are not always drawn.
The label depends only on difference in startle response: Satisfied if it is at least -1, Not satisfied if it is smaller.

Check this molecule for difference in startle response at or above -1: C[C@H](Cc1cc2c(c(C(N)=O)c1)N(CCCO)CC2)NCCOc1ccccc1OCC(F)(F)F Satisfied

Does CCC(C)n1ncn(-c2ccc(N3CCN(c4ccc(OCC5COC(Cn6cncn6)(c6ccc(Cl)cc6Cl)O5)cc4)CC3)cc2)c1=O (stereo not drawn) have a reported difference in startle response of at least -1? Satisfied

For this molecule, is measured difference in startle response -1 or higher? COc1cc2nc(N3CCN(C(=O)C4COc5ccccc5O4)CC3)nc(N)c2cc1OC (stereo not drawn) [Doxazosin (mesylate)] Satisfied

Confirm if difference in startle response reported for the molecule CCC(C)(C)C(=O)O[C@H]1C[C@@H](C)C=C2C=C[C@H](C)[C@H](CC[C@@H]3C[C@@H](O)CC(=O)O3)[C@H]21 is -1 or above. Not satisfied

Determine whether measured difference in startle response meets or exceeds -1 for CS(=O)(=O)OCCCCOS(C)(=O)=O Satisfied

Check the entry Nc1ccn(C[C@@H](CO)OCP(=O)(O)O)c(=O)n1 : does difference in startle response equal or exceed -1? Not satisfied

API: above_or_equal(metric=difference in startle response, cutoff=-1) for item CN(C)C(=O)C(CCN1CCC(O)(c2ccc(Cl)cc2)CC1)(c1ccccc1)c1ccccc1 [Loperamide (hydrochloride)] Satisfied

Exam item: decide whether the reported difference in startle response for CC(=O)O[C@]1(C(C)=O)CC[C@H]2[C@@H]3C[C@H](C)C4=CC(=O)CC[C@]4(C)[C@H]3CC[C@@]21C [Medroxyprogesterone 17-acetate] is at least -1. Not satisfied

###

System: Danio rerio larvae (5 dpf)
Assay: difference in habituation to acoustic stimuli vs DMSO (percentage points); higher = more habituation than DMSO
Details: 10 µM; exposure time 6 h
Structures can show the parent of a compound that is named as a salt.
measurement_kind: difference in habituation to acoustic stimuli
The answer should be a number; do not append a unit.

So what does the record say about difference in habituation to acoustic stimuli for OC[C@H]1O[C@@H](n2cnc3c2N=CNC[C@H]3O)C[C@@H]1O ? 0.584

Please give the measured difference in habituation to acoustic stimuli for this molecule: N[C@@H]1CCCCN(c2c(F)cc3c(=O)c(C(=O)O)cn(C4CC4)c3c2Cl)C1 [Besifloxacin (hydrochloride)] -5.08

For COCCCOc1cc(C[C@@H](C[C@H](N)[C@@H](O)C[C@H](C(=O)NCC(C)(C)C(N)=O)C(C)C)C(C)C)ccc1OC [Aliskiren (hemifumarate)] , what is its reported difference in habituation to acoustic stimuli? 0.61

Look up difference in habituation to acoustic stimuli: Nc1ncnc2c1ncn2[C@@H]1O[C@H](CO)[C@@H](O)[C@H]1O -5.11

###

Test system: Danio rerio larvae (5 dpf)
Test: difference in activity during first hour vs DMSO (percentage points); higher = more activity than DMSO
Conditions: 10 µM; exposure time 6 h
Structures can show the parent of a compound that is named as a salt.
Outcome label depends on difference in activity during first hour relative to 7: at/above gives Criterion met, below gives Criterion not met.

Please indicate if the recorded difference in activity during first hour for CO[C@H]1/C=C/O[C@@]2(C)Oc3c(C)c(O)c4c(O)c(c5c(nc6cc(C)ccn65)c4c3C2=O)NC(=O)/C(C)=C\C=C\[C@H](C)[C@H](O)[C@@H](C)[C@@H](O)[C@@H](C)[C@H](OC(C)=O)[C@@H]1C meets or exceeds 7. Criterion met

Check the entry Cc1cc(C(=O)NNCc2ccccc2)no1 : does difference in activity during first hour equal or exceed 7? Criterion not met

Decide: is the reported value of difference in activity during first hour for Cc1nc(-c2ccc(OCC(C)C)c(C#N)c2)sc1C(=O)O equal to or greater than 7? Criterion not met

Kindly determine if difference in activity during first hour recorded for CCCc1nn(C)c2c(=O)[nH]c(-c3cc(S(=O)(=O)N4CCN(C)CC4)ccc3OCC)nc12 [Sildenafil Citrate] is above or exactly 7. Criterion not met

Does the reported difference in activity during first hour for CNCC(O)c1ccc(OC(=O)C(C)(C)C)c(OC(=O)C(C)(C)C)c1 (centres undefined) [Dipivefrin (hydrochloride)] fall at or above the 7 mark? Criterion met

Does difference in activity during first hour meet or surpass 7 for CC(C)C(=O)Oc1ccc(CO)cc1[C@H](CCN(C(C)C)C(C)C)c1ccccc1 [Fesoterodine (fumarate)] ? Criterion not met

Please check the record C[C@H](CCC(=O)O)[C@H]1CC[C@H]2[C@@H]3[C@H](O)C[C@@H]4C[C@H](O)CC[C@]4(C)[C@H]3C[C@H](O)[C@]12C and state if its difference in activity during first hour is at or above 7. Criterion met

Decide: difference in activity during first hour of CC[C@]1(O)C[C@H]2CN(CCc3c([nH]c4ccccc34)[C@@](C(=O)OC)(c3cc4c(cc3OC)N(C=O)[C@H]3[C@@](O)(C(=O)OC)[C@H](OC(C)=O)[C@]5(CC)C=CCN6CC[C@]43[C@@H]65)C2)C1 [Vincristine (sulfate)] >= 7? Criterion not met
